Measured cell viability values are reported for all entries that follow.
# Test system: P12-Ichikawa
# ASSAY REMARKS: cell viability relative to DMSO control; higher = less cytotoxic
# SETTINGS: HPLM + 10% dialyzed FBS; 48 h; 0.569 µM

COMPOUND: CCOC(=O)N1CCN(/[N+]([O-])=N/Oc2ccc([N+](=O)[O-])cc2C#N)CC1
READOUT UNITS: %
cell viability: 113
--
COMPOUND: C[C@]12CC[C@@H]3c4ccc(O)cc4CC[C@H]3[C@@H]1[C@@H](O)[C@@H](O)[C@@H]2O
READOUT UNITS: %
cell viability: 122
--
COMPOUND: O=C(c1ccc(F)cc1)N1CCC[C@H](c2nc(-c3ccc(F)cc3)no2)C1
READOUT UNITS: %
cell viability: 116
--
COMPOUND: O=C1[C@H](Cc2ccc(O)cc2)N2C(=O)CCN(C(=O)NCc3ccccc3)[C@H]2CN1Cc1cccc2ccccc12
READOUT UNITS: %
cell viability: 85.4
--
COMPOUND: CC1CNc2c(cccc2[S+](=O)([O-])N[C@@H](CCCNC(=N)N)C(=O)N2CC[C@@H](C)C[C@@H]2C(=O)O)C1 (some centres undefined)
READOUT UNITS: %
cell viability: 109
--
COMPOUND: CC(C)c1noc(N2CCC(COc3ccc(-c4ccc([S+](C)(=O)[O-])cc4)nc3)CC2)n1
READOUT UNITS: %
cell viability: 112
--
COMPOUND: NNCCc1ccccc1
READOUT UNITS: %
cell viability: 115
--
COMPOUND: COCC1(CO)C(=O)C2CCN1CC2 (centres undefined)
READOUT UNITS: %
cell viability: 85.3
--
COMPOUND: N#CCNC(=O)c1ccc(-c2ccnc(Nc3ccc(N4CCOCC4)cc3)n2)cc1
READOUT UNITS: %
cell viability: 98.8

###

Measured cell viability values are reported for all entries that follow.
# Test system: SEM cells
# ASSAY REMARKS: cell viability relative to DMSO control; higher = less cytotoxic
# SETTINGS: HPLM + 10% dialyzed FBS; 48 h; 0.0211 µM

MOLECULE: CN[C@H]1CCC2=CC(=C(OC)C(=C2C/3=C/C=C(OC)\C(=O)/C=C13)OC)OC
cell viability: 23%

MOLECULE: CNC(=O)c1ccc(N2C(=S)N(c3cnc(C#N)c(C(F)(F)F)c3)C(=O)C23CCC3)cc1F
cell viability: 103%

MOLECULE: CNCC(O)c1ccc(O)cc1 (stereo not drawn)
cell viability: 80.2%

MOLECULE: CC(C)c1ccc2c(c1)c(SC(C)(C)C)c(CC(C)(C)C(=O)[O-])n2Cc1ccc(Cl)cc1
cell viability: 100%

MOLECULE: CC(C)(C)NC(=O)Nc1cccc(Nc2ncc(F)c(NC(C)(C)CO)n2)c1
cell viability: 104%

MOLECULE: O=C(O)Cn1nnc(-c2cc(N3CCC(Oc4cc(F)ccc4Br)CC3)no2)n1
cell viability: 75.8%

MOLECULE: CCC[C@H](NC(=O)[C@@H]1[C@H]2CCC[C@H]2CN1C(=O)[C@@H](NC(=O)[C@@H](NC(=O)c1cnccn1)C1CCCCC1)C(C)(C)C)C(=O)C(=O)NC1CC1
cell viability: 106%

MOLECULE: COCC1(CO)C(=O)C2CCN1CC2 (stereo not drawn)
cell viability: 93.8%

MOLECULE: O=C(C=CC#Cc1cccc(N[S+](=O)([O-])c2ccccc2)c1)NO
cell viability: 119%

MOLECULE: C[C@H]1C[C@@H]2[C@H](CC[C@@]3(C)[C@H]2CC[C@]3(OC(C)=O)C(C)=O)[C@@]\4(C)CCC(=O)\C=C14
cell viability: 87%

MOLECULE: CCCc1cc(C(N)=S)ccn1
cell viability: 113%

MOLECULE: CCN1CCN(CC1)CC(=O)NC2=CC=C(C3=C2C4=C(S3)C=CC=C4)C5=C6O\C(=C/C(=O)C6=CC=C5)N7CCOCC7
cell viability: 106%

MOLECULE: C[C@H](NC(=O)c1sccc1OCc1ccc(Cl)cc1)c1ccccc1
cell viability: 88.2%

MOLECULE: Cc1onc(-c2ccccc2Cl)c1C(=O)N[C@@H]1C(=O)N2[C@@H]1SC(C)(C)[C@@H]2C(=O)[O-]
cell viability: 97.7%

MOLECULE: CC(C)c1noc(N2CCC(COc3ccc(-c4ccc([S+](C)(=O)[O-])cc4)nc3)CC2)n1
cell viability: 122%

MOLECULE: COc1cc(OC2CCN(C)CC2)ccc1Nc1ncc2c(n1)n(C1CCCC1)c(=O)n2C
cell viability: 69.4%

MOLECULE: C[C@@H](Oc1cc(-c2cnn(C3CCNCC3)c2)cnc1N)c1c(Cl)ccc(F)c1Cl
cell viability: 124%

MOLECULE: CCC[S+]([O-])c1ccc2[nH]c(NC(=O)OC)nc2c1 (stereo not drawn)
cell viability: 86.7%

Data origin: the supplement of paper PMC11451515
